assay_name: Rat liver S9 fraction assay (release of NRB or NRB analogue)
Assay type: in vitro ADME, rat (male Sprague-Dawley)
measurement_setup: 1 mg/mL rat liver S9 fraction, 37° C., 6 h, n = 3
reported_metric: % NRB released, Rat Liver S9

Below: 4 molecules and their reported % NRB released, Rat Liver S9.
For CCCCCCCC(=O)OCCN1C(=O)C2C3C=C(C(O)(c4ccccc4)c4ccccn4)C(C3=C(c3ccccc3)c3ccccn3)C2C1=O (centres unmarked) the molecule record lists % NRB released, Rat Liver S9 as 48.5 ± 8.5%

So for O=C(OCN1C(=O)C2C3C=C(C(O)(c4ccccc4)c4ccccn4)C(C3=C(c3ccccc3)c3ccccn3)C2C1=O)c1ccc2ccccc2c1 (centres unmarked) , the logged % NRB released, Rat Liver S9 turned out to be 20.2 ± 0.8%

The value of % NRB released, Rat Liver S9 measured for the molecule O=C(CCC(=O)OCCN1C(=O)C2C3C=C(C(O)(c4ccccc4)c4ccccn4)C(C3=C(c3ccccc3)c3ccccn3)C2C1=O)OCCOC(=O)CCC(=O)OCCN1C(=O)C2C3C=C(C(O)(c4ccccc4)c4ccccn4)C(C3=C(c3ccccc3)c3ccccn3)C2C1=O (centres unmarked) turned out to be <5%

Kindly note the recorded % NRB released, Rat Liver S9 for O=C(C=Cc1ccccc1)OCCCN1C(=O)C2C3C=C(C(O)(c4ccccc4)c4ccccn4)C(C3=C(c3ccccc3)c3ccccn3)C2C1=O (centres unmarked) , which is 18.2 ± 2.7%

Proceed to the following item.
Query O=C(OCCN1C(=O)C2C3C=C(C(O)(c4ccccc4)c4ccccn4)C(C3=C(c3ccccc3)c3ccccn3)C2C1=O)C(c1ccccc1)c1ccccc1 (centres unmarked) yields % NRB released, Rat Liver S9 of 9.0 ± 0.7%
